Test: Stability test of compounds in solutions at different pH values
Settings: buffered saline solution pH 4.0, 12 h
measured-parameter: Content reduction (%)

Problem: Which Content reduction (%) is reported for this molecule? O=c1ccn([C@@H]2O[C@](F)(CO)[C@@H](O)[C@H]2O)c(=O)[nH]1 [Compound X28-1, reference compound]
Result: 22.2%

Problem: Again, but for CC(C)C(=O)OC[C@@]1(F)O[C@@H](n2ccc(=O)n(COC(=O)c3cccnc3)c2=O)[C@H](OC(=O)C(C)C)[C@@H]1OC(=O)C(C)C [Compound X206]
Result: 0.03%

Problem: Again, but for CCC(CC)C(=O)OCn1c(=O)ccn([C@@H]2O[C@](F)(COC(=O)C(C)C)[C@@H](O)[C@H]2O)c1=O [Compound X52]
Result: 2.2%

====

Assay: Solubility of compounds in water
Settings: thermodynamic from solid
Binary call on solubility at 15 min: criterion met from 8000 µg/mL upward, criterion not met beneath that.

Problem: Is solubility at 15 min for `CC(=O)OC[C@@]1(F)O[C@@H](n2ccc(=O)n(COC(=O)c3cccnc3)c2=O)[C@H](OC(C)=O)[C@@H]1OC(C)=O` at or above 8000 µg/mL?
Result: criterion not met

Problem: Again, but for `CC(=O)O[C@H]1[C@H](n2ccc(=O)[nH]c2=O)O[C@](F)(COC(=O)C(C)C)[C@H]1OC(C)=O`
Result: criterion not met

Problem: Again, but for CC(=O)OC[C@@]1(F)O[C@@H](n2ccc(=O)n(COC(=O)c3cccnc3)c2=O)[C@H](OC(C)=O)[C@@H]1OC(C)=O.Cl [X219 hydrochloride]
Result: criterion not met

Problem: Again, but for CC(=O)O[C@H]1[C@H](n2ccc(=O)n(COC(=O)c3cccnc3)c2=O)O[C@](F)(COC(=O)C(C)C)[C@H]1OC(C)=O.Cl [X265 hydrochloride]
Result: criterion met

Problem: Again, but for Br.CC(=O)OC[C@@]1(F)O[C@@H](n2ccc(=O)n(COC(=O)c3cccnc3)c2=O)[C@H](OC(C)=O)[C@@H]1OC(C)=O [X219 hydrobromide]
Result: criterion met

Problem: Again, but for `CC(=O)OC[C@@]1(F)O[C@@H](n2ccc(=O)[nH]c2=O)[C@H](OC(C)=O)[C@@H]1OC(C)=O`
Result: criterion not met

====

Test: Cytotoxicity in HEp-2 cells (CCK8)
Conditions: human
measured-parameter: CC50 at 5 days

Problem: Which CC50 at 5 days is reported for this compound? `CCC(=O)OC[C@@]1(F)O[C@@H](n2ccc(=O)n(COC(=O)c3cccnc3)c2=O)[C@H](OC(=O)CC)[C@@H]1OC(=O)CC`
Result: > 10 µM

Problem: Again, but for `CC(C)(C)C(=O)OC[C@@]1(F)O[C@@H](n2ccc(=O)n(COC(=O)c3cccnc3)c2=O)[C@H](O)[C@@H]1O`
Result: > 10 µM

Problem: Again, but for `CCCCCCCCCCCC(=O)OCn1c(=O)ccn([C@@H]2O[C@](F)(COC(=O)CCCCCCCCCCC)[C@@H](O)[C@H]2O)c1=O`
Result: > 10 µM

====

Experiment: Stability test of compounds in solutions at different pH values
Conditions: buffered saline solution pH 6.8, 18 h
Field: Content reduction (%). Provide a value for each of the compounds that follow.
Quick reminder: number only, in %, skip the unit.

Problem: Which Content reduction (%) is reported for this compound? `CC(C)C(=O)OC[C@@]1(F)O[C@@H](n2ccc(=O)n(COC(=O)c3cccnc3)c2=O)[C@H](OC(=O)C(C)C)[C@@H]1OC(=O)C(C)C`
Result: 6.34

Problem: Again, but for `CC(=O)OC[C@@]1(F)O[C@@H](n2ccc(=O)n(COC(=O)c3cccnc3)c2=O)[C@H](OC(C)=O)[C@@H]1OC(C)=O`
Result: 6.01

Problem: Again, but for `CC(C)C(=O)OC[C@@]1(F)O[C@@H](n2ccc(=O)n(COC(=O)C3CCCCC3)c2=O)[C@H](O)[C@@H]1O`
Result: 6.4

Problem: Again, but for `CC(C)C(=O)OCn1c(=O)ccn([C@@H]2O[C@](F)(COC(=O)C(C)C)[C@@H](O)[C@H]2O)c1=O`
Result: 5.6

Problem: Again, but for `CCC(CC)C(=O)OCn1c(=O)ccn([C@@H]2O[C@](F)(COC(=O)C(C)C)[C@@H](O)[C@H]2O)c1=O`
Result: 6.6

Problem: Again, but for CC(=O)OC[C@@]1(F)O[C@@H](n2ccc(=O)n(COC(=O)c3cccnc3)c2=O)[C@H](OC(C)=O)[C@@H]1OC(C)=O.Cl [X219 hydrochloride]
Result: 6.13

Problem: Again, but for O=c1ccn([C@@H]2O[C@](F)(CO)[C@@H](O)[C@H]2O)c(=O)[nH]1 [Compound X28-1, reference compound]
Result: 38.0
